Would you mind telling me the reported Kd of each entry?
TGT: murine IL-2 receptor βγc heterodimer (mIL-2Rβγc) (mouse) (UniProt P16297)
METHOD SUMMARY: SPR; mIL-2Rγ immobilised, saturating mIL-2Rβ in solution
A bare number is not enough; add the unit after it.

Sample records with Kd:
BINDER	Kd
G2_neo2_40_1F_seq29 (designed binder) EDYYSNLKVILEELAREMERNGLSDKAEEWRQWKKIVERIRQIRSNNSDLNEAKELLNRLITYIQSQIFEISERIRETDQEKKEESWKKWQLLLEHALLDVLMLLND	38.2 nM
G2_neo2_40_1F_seq12 (designed binder) TEKKLQLLVEHALLDALMILNLWSESNEKLNRIITTMQSWIFTGRIDPDKAEELAKLVEELREEARERGIDTEDYVSNLKVILKELS	39.1 nM

[ask] What measured Kd goes with G1_neo2_40_1F_H1 (designed binder) STKKTQLLIEHALLDALDMSRNLPEPNEKLSRIITTMQSWIFTGKIDGDGAQQLAKEVEELEQEHEKRGEDVEDEASNLKVILLELA ?
[reply] 2650 nM
